test-system: HsNMT Isoform 1 (Homo sapiens, UniProt P30419)
Sequence (P30419 1-496): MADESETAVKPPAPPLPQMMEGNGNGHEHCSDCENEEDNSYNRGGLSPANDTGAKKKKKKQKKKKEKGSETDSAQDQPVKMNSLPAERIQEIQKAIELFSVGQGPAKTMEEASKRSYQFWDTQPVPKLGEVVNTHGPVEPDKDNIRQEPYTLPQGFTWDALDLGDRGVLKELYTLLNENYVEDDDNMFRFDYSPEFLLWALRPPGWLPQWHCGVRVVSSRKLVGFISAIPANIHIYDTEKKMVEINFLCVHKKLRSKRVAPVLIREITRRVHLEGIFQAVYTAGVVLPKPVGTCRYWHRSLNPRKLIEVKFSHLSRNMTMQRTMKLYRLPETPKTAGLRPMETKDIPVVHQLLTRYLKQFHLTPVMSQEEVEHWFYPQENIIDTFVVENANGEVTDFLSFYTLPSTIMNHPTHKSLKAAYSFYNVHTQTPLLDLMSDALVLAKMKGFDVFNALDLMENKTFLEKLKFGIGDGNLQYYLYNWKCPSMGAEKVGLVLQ
assay-notes: NMT activity assay (CPM fluorescence detection of free CoA), HsNMT
measurement-type: pIC50
Numbers only, as −log10 of the molar value.

The examples below pair each entry with its known result.
{"compound": "Cc1c(CCOc2ccccc2-c2ccnc(N3CCNCC3)c2)c(C(=O)NCCO)nn1C [Compound 8h]", "pIC50": 6.30}
{"compound": "CC(=O)CNC(=O)c1nn(C)c(C)c1CCOc1ccccc1-c1ccnc(N2CCNCC2)c1 [Compound 8g]", "pIC50": 5.80}

Query pIC50 on HsNMT Isoform 1 (Homo sapiens, UniProt P30419) for Cc1c(CCOc2cccnc2-c2ccnc(N3CCNCC3)c2)c(C(=O)NCC(=O)O)nn1C [Compound 9c] 4.95
